Below, each entry is listed with its recorded melting point.

# chemical_structure, recorded_endpoint, test_result
records = [
    ("O=c1[nH]c(C(F)(F)F)nc2ccc(S(=O)(=O)O)cc12", "melting point", "> 330 °C"),
    ("N#CSc1cnn(-c2c(Cl)cc(C(F)(F)F)cc2Cl)c1N", "melting point", "137 °C"),
    ("O=C(N[C@H]1CCCNC1=O)c1ccc(F)c(F)c1", "melting point", "202 to 204 °C"),
    ("CN(C)CC(=O)N1c2ccccc2N(C)C(=O)c2cnc(-c3ccccc3)nc21", "melting point", "207 to 208 °C"),
    ("COn1c(C)nc2c(NCc3c(C)cccc3C)cc(C(=O)N(C)C)cc21", "melting point", "128 to 129 °C"),
    ("COc1ccc(Nc2cc(C)nc(SCC#N)n2)cc1", "melting point", "128 to 131 °C"),
]

Per the records, this compound ( "COC(=O)CCc1conc1-c1ccc(Cl)c(Cl)c1" ) has melting point equal to 87 to 88 °C

Per the records, this compound ( "COc1cc(CC(=O)O)ccc1SCc1sc(-c2ccc(C(F)(F)F)cc2)nc1C" ) has melting point equal to 181 to 182 °C

###

recorded_endpoint: melting point

# compound, test_result
measured = [
    ("Cc1ccc(C)c(NC(=O)OC(C)(C)C)c1", "103 to 104 °C"),
    ("O=c1cccccc1S", "55 °C"),
    ("COCCn1nnnc1C1(c2cccc(C(F)(F)F)c2)C=CC(O)=CC1O (stereo unspecified)", "115 to 156 °C"),
    ("Cc1ccc(C(=O)n2nc(Nc3ccc(O)cc3)nc2N)cc1", "221 to 223 °C"),
    ("N#Cc1ccc(C(=Cc2ccc(C#N)cn2)Cn2cncn2)cc1", "211 °C"),
]

Per the records, this compound ( "CC(=O)c1ccc(-c2ccc3c(ccn3Cc3ccccc3)c2)cc1" ) has melting point equal to 134 to 135 °C

Per the records, this compound ( "CCOCOc1cc(C)ccc1-c1cc(-c2cccc([N+](=O)[O-])c2)c(C#N)c(N)n1" ) has melting point equal to 148 to 149 °C

Per the records, this compound ( "CCCC(=NOCC)C1=C(O)CC2(CSCCSC2)OC1=O" ) has melting point equal to 108 to 110 °C

Per the records, this compound ( "COc1cc(O)c(C(=O)C=Cc2cccn2C)c(OC)c1" ) has melting point equal to 140 °C

Per the records, this compound ( "O=C1CC(C(F)(F)F)CC(=O)N1c1cc(O)c(Cl)cc1F" ) has melting point equal to 112 to 114 °C

Per the records, this compound ( "COC(=O)C=Cc1cc(O)cc2cc(-c3ccc(O)cc3)oc12" ) has melting point equal to 231 to 234 °C

###

Below, each entry is listed with its recorded melting point.

Recorded melting point, per entry:
# chemical_structure, melting point
rows = [
    ("CCC(c1ccc(O)cc1)c1ccc(O)cc1", "131 to 133 °C"),
    ("CCCCOC(=O)c1c(N)c2cccnc2n(CC)c1=O", "117 to 120 °C"),
    ("CCOC(=O)C(=O)Nc1cccc2ccccc12", "105 to 107 °C"),
    ("CN(C)/N=C(/C(=O)O)c1ccc(OCCOc2ccc3ccccc3c2)cc1", "135 °C"),
    ("O=c1nc(-c2ccc[nH]2)sc2ccccc12", "202 to 203 °C"),
    ("NC[C@@H]1C[C@@H](SC(c2ccccc2)(c2ccccc2)c2ccccc2)CN1S(=O)(=O)c1ccc2ccccc2c1", "88 to 89 °C"),
]

Per the records, this compound ( "CCOC(=O)c1c(C)[nH]c(Sc2cc(Cl)cc(Cl)c2)c1C(C)C" ) has melting point equal to 148 to 151 °C

Per the records, this compound ( "CCOc1cc2c(Nc3cc(OC)c(Cl)cc3Cl)c(C#N)cnc2cc1OCCCN1CCN(C)CC1" ) has melting point equal to 137 to 138 °C

Per the records, this compound ( "Oc1ccc(CCc2cc(O)cc(O)c2)cc1" ) has melting point equal to 160 to 161 °C

Per the records, this compound ( "Cc1cc(Cc2cc3cc(C(F)(F)F)ccc3n2S(=O)(=O)c2cccc(C(C)(C)C)c2)c(F)cc1C(=O)O" ) has melting point equal to 195 °C

###

Below, each entry is listed with its recorded melting point.

Recorded melting point, per entry:
# compound, melting point
measured = [
    ("CC(=O)Nc1ccc(C(C)=NNc2ccc(C3=NNC(=O)CC3C)cc2)cc1 (stereo unspecified)", "145 to 155 °C"),
    ("Cc1cc2ccccc2c(-c2ccc(I)cc2)n1", "146 to 147 °C"),
    ("CCCOCN(C(=O)CCl)c1c(OC)cccc1OC", "83 to 85 °C"),
    ("CC(C)n1c(=O)nc(-c2cc3c(cc2Cl)OCO3)c2cc3c(cc21)OCO3", "147 to 150 °C"),
    ("CC(C)(C)c1ccc(Sc2cc(C(=O)O)ccc2C(=O)O)cc1", "325 to 326 °C"),
    ("COc1cc(OCC(CO)CO)c(-c2cccs2)cc1C=O", "144 to 145 °C"),
    ("O=S(=O)(NCc1ccnnc1)c1cc(Br)cs1", "120 to 122 °C"),
    ("NC(c1ccccc1)c1nc2ccccc2s1 (stereo unspecified)", "68 to 70 °C"),
]

Per the records, this compound ( "CNS(=O)(=O)c1sccc1CCl" ) has melting point equal to 52 to 53 °C

Per the records, this compound ( CC(C)(Br)C1CC(=O)OC1OCc1cccc(Oc2ccccc2)c1 (stereo unspecified) ) has melting point equal to 60 °C

Per the records, this compound ( "O=C1N(c2c(Cl)cccc2Cl)Cc2cnc(Nc3cccc4ccccc34)nc2N1c1ccccc1" ) has melting point equal to 213 to 214 °C

###

Below, each entry is listed with its recorded melting point.

# molecule, test_result
records = [
    ("CCCn1nc2c(N)nc3ccccc3c2c1CCNC(=O)c1ccc(F)cc1", "198 to 199 °C"),
]

Per the records, this molecule ( CC(C)c1ccc(N(Cc2ccc(N(C)C)cc2)C(=O)C2CCc3c(O)cccc32)cc1 (stereo not given) ) has melting point equal to 158 to 160 °C

Per the records, this molecule ( "O=C(O)Cc1cn(Cc2ccc(OCc3ccccc3)cc2)nc1-c1ccc(F)cc1" ) has melting point equal to 194 to 195 °C

Per the records, this molecule ( "CCCCCCCCCCCCCCCC(=O)NC(=O)OCc1nc(C(C)C)c(Sc2cc(Cl)cc(Cl)c2)n1CC" ) has melting point equal to 95 to 97 °C

Per the records, this molecule ( "c1ccc2c(NC3CCCC3)nnc(Cc3ccncc3)c2c1" ) has melting point equal to 163 to 165 °C

Per the records, this molecule ( CN1CC23CC(c4ccccc4C2C1=O)c1ccccc13 (stereo not given) ) has melting point equal to 141 to 146 °C

Per the records, this molecule ( COc1cc(NC(C)CCCN2C(=O)c3ccccc3C2=O)c2ncccc2c1Oc1ccc(Cl)cc1 (stereo not given) ) has melting point equal to 75 to 77 °C

Per the records, this molecule ( "CCOC(=O)c1ccc2[nH]cc(CCCI)c2c1" ) has melting point equal to 81 °C

Per the records, this molecule ( "O=C(c1ccc(F)cc1)C1CCN(CCCCn2c(=O)[nH]c3ccccc32)CC1" ) has melting point equal to 176 °C

Per the records, this molecule ( C=CC(O)c1ccc2ccccc2c1 (stereo not given) ) has melting point equal to 30 to 32 °C

Per the records, this molecule ( "COc1ccc2[nH]c(Sc3ccc(C=O)o3)nc2c1" ) has melting point equal to 94 to 99 °C

Per the records, this molecule ( Nc1nc2c(ncn2C2C=CC(CO)O2)c(=O)[nH]1 (stereo not given) ) has melting point equal to > 250 °C

Per the records, this molecule ( "CCOC(=O)c1cccc(N)c1NCc1ccc(-c2ccccc2C#N)cc1" ) has melting point equal to 104 to 105 °C

Per the records, this molecule ( CCOC(=O)c1nn(-c2c(Cl)cc(C(F)(F)F)cc2Cl)cc1OC(F)(F)C(F)Cl (racemic) ) has melting point equal to 105 to 106 °C

Per the records, this molecule ( "COc1ccccc1N1CCN(CCN2C(=O)c3ccccc3C2=O)CC1" ) has melting point equal to 76 to 81 °C

Per the records, this molecule ( CCCN(CC)C(C)CN1CCc2c(c(=O)oc3cc(OC)c(OC)cc23)C1 (stereo not given) ) has melting point equal to 93 to 96 °C

###

Below, each entry is listed with its recorded melting point.

# compound, test_result
data = [
    ("O=C(C=Cc1ccc(F)cc1)c1cccs1", "117 to 120 °C"),
    ("O=C(N=C1CCCN1Cc1ccccc1)Nc1ccc(F)c(Cl)c1", "131 to 132 °C"),
    ("O=C(O)C(=O)c1ccc(-c2ccc(Cl)cc2)s1", "339 to 343 °C"),
    ("CC1CN(C(=O)COc2nc(-c3ccc(Cl)cc3)nc3c2CCCC3)CC(C)O1 (stereo not given)", "265 to 268 °C"),
]

Per the records, this compound ( CC(=O)NC(Cc1csc2ccccc12)C(=O)CCc1cc(C(F)(F)F)cc(C(F)(F)F)c1 (stereo not given) ) has melting point equal to 83 to 84 °C

Source listed as a melting point compilation (Tetko et al.; mined from patent text by program, amines drawn as free bases though some values may be those of a salt).
